Cited source: patent US10538532B2

# Lookup of reported CC50 at 3 days keyed by entry
# Test description: Compound toxicity, ATPLite total ATP levels
# Assay type: cell-based
# Run conditions: human, HepAD38 cells; three days after compound addition; concentration reducing total ATP levels by 50% relative to no drug controls; class symbols

>  <Compound>
O=C(Nc1cc(F)c(F)c(F)c1)c1ccc(Cl)c(S(=O)(=O)Cc2cccnc2)c1

>  <Meas value>
> 25 µM

$$$$
>  <Compound>
COC(=O)N[C@H](C(=O)NC[C@@]1(O)CC2CC[C@@H](C1)[C@H]2S(=O)(=O)c1cc(C(=O)Nc2cc(F)c(F)c(F)c2)ccc1Cl)C(C)C

>  <Meas value>
10 to 25 µM

$$$$
>  <Compound>
O=C(Nc1cc(F)c(F)c(F)c1)c1ccc(Cl)c(S(=O)(=O)[C@H]2C3CC[C@H]2C[C@](O)(COCc2ccccn2)C3)c1

>  <Meas value>
< 10 µM

$$$$
>  <Compound>
N#CC[C@]1(O)CC2CC[C@@H](C1)[C@H]2S(=O)(=O)c1cc(C(=O)Nc2cc(F)c(F)c(F)c2)ccc1Cl

>  <Meas value>
10 to 25 µM

$$$$
>  <Compound>
O=C(Nc1cc(F)c(F)c(F)c1)c1ccc(Cl)c(S(=O)(=O)[C@H]2C3CC[C@H]2C[C@@H](c2ncc[nH]2)C3)c1

>  <Meas value>
< 10 µM

$$$$
>  <Compound>
O=C(Nc1cc(F)c(F)c(F)c1)c1ccc(Cl)c(S(=O)(=O)[C@H]2CC3CCC(C2)[C@]3(O)c2ccncc2)c1

>  <Meas value>
10 to 25 µM

$$$$

What does the record list as CC50 at 3 days for [N-]=[N+]=NC[C@]1(O)CC2CC[C@@H](C1)[C@H]2S(=O)(=O)c1cc(C(=O)Nc2cc(F)c(F)c(F)c2)ccc1Cl ? 10 to 25 µM

What does the record list as CC50 at 3 days for O=C(Nc1cc(F)c(F)c(F)c1)c1ccc(Cl)c(S(=O)(=O)[C@H]2C3CC[C@H]2C[C@](O)(c2cc(-c4ccccc4)on2)C3)c1 ? < 10 µM

What does the record list as CC50 at 3 days for O=C(Nc1cc(F)c(F)c(F)c1)c1ccc(Cl)c(S(=O)(=O)[C@H]2CC3CCC(C2)[C@@]3(O)c2nccs2)c1 ? 10 to 25 µM

What does the record list as CC50 at 3 days for C=C[C@]1(O)CC2CC[C@@H](C1)[C@H]2S(=O)(=O)c1cc(C(=O)Nc2cc(F)c(F)c(F)c2)ccc1Cl ? > 25 µM

What does the record list as CC50 at 3 days for O=C(Nc1cc(F)c(F)c(F)c1)c1ccc(Cl)c(S(=O)(=O)[C@]2(F)CC[C@H](O)CC2)c1 ? 10 to 25 µM

What does the record list as CC50 at 3 days for O=C(Nc1cc(F)c(F)c(F)c1)c1ccc(Cl)c(S(=O)(=O)[C@H]2C3CC[C@H]2C[C@H](Cn2ccnc2)C3)c1 ? 10 to 25 µM

What does the record list as CC50 at 3 days for CC(c1ccncc1)S(=O)(=O)c1cc(C(=O)Nc2cc(F)c(F)c(F)c2)ccc1Cl (stereo not shown) ? 10 to 25 µM
